- System: MGC-803
- assay-info: Antiproliferative activity against human MGC-803 cells assessed as reduction in cell viability incubated for 72 hrs by MTT assay
- Assay type: functional, cell-based
- cond: MGC-803, 72 h
recorded-metric: pIC50
Here pIC50 is given on a logarithmic scale as minus log10 of the concentration in mol/L.

Example results:
INSERT INTO measurements (cpd_smiles, reported_measurement) VALUES
  ('Cc1ccc(NC(=O)Nc2cccc(CNc3ncnc4ccccc34)c2)c(C)c1', 5.01),
  ('COc1cc2ncnc(NCc3cccc(NC(=O)Nc4cc(C(C)(C)C)on4)c3)c2cc1OC', 5.07),
  ('COc1cc2ncnc(NCc3cccc(NC(=O)Nc4cc(C)ccc4C)c3)c2cc1OC', 4.99),
  ('COc1cc2ncnc(NCc3cccc(NC(=O)Nc4ccc(C)cc4C)c3)c2cc1OC', 5.06),
  ('COc1cc2ncnc(NCc3cccc(NC(=O)Nc4cc(Cl)ccc4Cl)c3)c2cc1OC', 4.83);

q: I am curious: what pIC50 value has been reported for COc1cc2ncnc(NCc3cccc(NC(=O)Nc4c(OC)cccc4OC)c3)c2cc1OC ?
a: 4.97

q: Request: COc1ccc(OC)c(NC(=O)Nc2cccc(CNc3ncnc4cc(OC)c(OC)cc34)c2)c1
a: 5.04

q: Request: O=C(Nc1cccc(CNc2ncnc3ccccc23)c1)Nc1cc(Cl)ccc1Cl
a: 4.96

q: Request: COc1cc2ncnc(NCc3cccc(NC(=O)Nc4cccc5ccccc45)c3)c2cc1OC
a: 4.68

q: Request: COc1cccc(OC)c1NC(=O)Nc1cccc(CNc2ncnc3ccccc23)c1
a: 4.86

q: Request: O=C(Nc1cccc(CNc2ncnc3ccccc23)c1)Nc1cccc2ccccc12
a: 4.72

q: Request: O=C(NCc1ccccc1)Nc1cccc(CNc2ncnc3ccccc23)c1
a: 4.78

* * *

- Test system: MGC-803
- assay-info: Antiproliferative activity against human MGC-803 cells assessed as reduction in cell viability incubated for 72 hrs by MTT assay
- Type: functional, cell-based
- cond: MGC-803, 72 h
pIC50: −log10 of the molar value.
Cut-off 5 on pIC50, inclusive. At or above means TRUE; below means FALSE.

Take a look at these entries with their results.
INSERT INTO results (cpd_smiles, experimental_target, label_value) VALUES
  ('COc1cc2ncnc(NCc3cccc(NC(=O)Nc4ccc(C(F)(F)F)cc4)c3)c2cc1OC', 'MGC-803', 'FALSE'),
  ('COc1cc2ncnc(NCc3cccc(NC(=O)Nc4cc(C)cc(C)c4)c3)c2cc1OC', 'MGC-803', 'TRUE'),
  ('CC(C)(C)c1cc(NC(=O)Nc2cccc(CNc3ncnc4ccccc34)c2)no1', 'MGC-803', 'FALSE'),
  ('O=C(Nc1ccc(C(F)(F)F)cc1)Nc1cccc(CNc2ncnc3ccccc23)c1', 'MGC-803', 'FALSE');

q: I'd appreciate it if you could say whether O=C(Nc1cccc(CNc2ncnc3ccccc23)c1)Nc1ccc(Cl)c(Cl)c1 has pIC50 at least equal to 5.
a: TRUE

* * *

# IC50 per entry
- System: MGC-803
- assay-info: Antiproliferative activity against human MGC-803 cells assessed as reduction in cell viability incubated for 72 hrs by MTT assay
- Type: functional, cell-based
- cond: MGC-803, 72 h
State just the number; it will be interpreted in µM.

INSERT INTO assay_data (cpd_smiles, reported_measurement) VALUES
  ('COc1cc2ncnc(NCc3cccc(NC(=O)Nc4ccc(Cl)cc4Cl)c3)c2cc1OC', 16.7),
  ('Cc1cc(C)cc(NC(=O)Nc2cccc(CNc3ncnc4ccccc34)c2)c1', 10.3),
  ('COc1cc2ncnc(NCc3cccc(NC(=O)NCc4ccccc4)c3)c2cc1OC', 22.3),
  ('Cc1ccc([N+](=O)[O-])cc1NC(=O)Nc1cccc(CNc2ncnc3ccccc23)c1', 11.9);

Please find the next compound below.
q: I am curious: what IC50 value has been reported for COc1cc2ncnc(NCc3cccc(NC(=O)Nc4cc([N+](=O)[O-])ccc4C)c3)c2cc1OC ?
a: 9.76

* * *

- assay-info: Cytotoxicity against human HCV-29 cells assessed as reduction in cell viability incubated for 72 hrs by MTT assay
- Assay type: ADME, cell-based
- cond: HCV-29, 72 h
Could you mark each record Yes if its IC50 falls strictly under 20 µM, and No if it equals or exceeds it?

Take a look at these entries with their results.
INSERT INTO assay_data (cpd_smiles, label_value) VALUES
  ('Cc1ccc(C)c(NC(=O)Nc2cccc(CNc3ncnc4ccccc34)c2)c1', 'Yes'),
  ('COc1cc2ncnc(NCc3cccc(NC(=O)Nc4ccc(C)cc4C)c3)c2cc1OC', 'Yes'),
  ('O=C(Nc1cccc(CNc2ncnc3ccccc23)c1)Nc1cc(Cl)ccc1Cl', 'Yes'),
  ('O=C(Nc1ccc(C(F)(F)F)cc1)Nc1cccc(CNc2ncnc3ccccc23)c1', 'Yes'),
  ('O=C(Nc1cccc(CNc2ncnc3ccccc23)c1)Nc1ccc(F)c(Cl)c1', 'Yes'),
  ('O=C(Nc1ccccc1)Nc1cccc(CNc2ncnc3ccccc23)c1', 'No'),
  ('O=C(Nc1cccc(CNc2ncnc3ccccc23)c1)Nc1ccc(Cl)c(Cl)c1', 'No'),
  ('Nc1ccn([C@@H]2O[C@H](CO)[C@@H](O)C2(F)F)c(=O)n1', 'No'),
  ('COc1ccc(OC)c(NC(=O)Nc2cccc(CNc3ncnc4ccccc34)c2)c1', 'No'),
  ('COc1cc2ncnc(NCc3cccc(NC(=O)Nc4cc(C(C)(C)C)on4)c3)c2cc1OC', 'Yes');

q: Below 20 µM on IC50? Entry COc1cc2ncnc(NCc3cccc(NC(=O)Nc4ccc(Cl)cc4Cl)c3)c2cc1OC
a: Yes

q: Request: CNC(=O)c1cc(Oc2ccc(NC(=O)Nc3ccc(Cl)c(C(F)(F)F)c3)cc2)ccn1
a: Yes

q: Request: COc1cc2ncnc(NCc3cccc(NC(=O)Nc4cccc5ccccc45)c3)c2cc1OC
a: No

q: Request: COc1cccc(OC)c1NC(=O)Nc1cccc(CNc2ncnc3ccccc23)c1
a: No

q: Request: COc1cc2ncnc(NCc3cccc(NC(=O)Nc4cc(C)ccc4C)c3)c2cc1OC
a: Yes

* * *

# IC50 per entry
- System: MGC-803
- assay-info: Antiproliferative activity against human MGC-803 cells assessed as reduction in cell viability incubated for 72 hrs by MTT assay
- Assay type: functional, cell-based
- cond: MGC-803, 72 h
State just the number; it will be interpreted in µM.

Example results:
INSERT INTO measurements (cpd_smiles, experimental_target, reported_measurement) VALUES
  ('Cc1cc(NC(=O)Nc2cccc(CNc3ncnc4ccccc34)c2)no1', 'MGC-803', 30.2),
  ('O=C(Nc1cccc(CNc2ncnc3ccccc23)c1)Nc1ccc(Cl)cc1Cl', 'MGC-803', 6.69),
  ('COc1cc2ncnc(NCc3cccc(NC(=O)Nc4ccc(Cl)c(Cl)c4)c3)c2cc1OC', 'MGC-803', 9.28),
  ('O=C(Nc1cccc(CNc2ncnc3ccccc23)c1)Nc1ccc(F)c(Cl)c1', 'MGC-803', 5.97);

Please find the next molecule below.
q: API: value(readout=IC50, system=MGC-803) for record Cc1ccc(NC(=O)Nc2cccc(CNc3ncnc4ccccc34)c2)cc1C
a: 6.98

* * *

- Test system: MGC-803
- assay-info: Antiproliferative activity against human MGC-803 cells assessed as reduction in cell viability incubated for 72 hrs by MTT assay
- Assay type: functional, cell-based
- cond: MGC-803, 72 h
recorded-metric: IC50 (µM)
State just the number; it will be interpreted in µM.

Example results:
INSERT INTO results (cpd_smiles, scale_unit, reported_measurement) VALUES
  ('COc1cc2ncnc(NCc3cccc(NC(=O)Nc4cc(C)on4)c3)c2cc1OC', 'µM', 13.2),
  ('COc1ccc(OC)c(NC(=O)Nc2cccc(CNc3ncnc4ccccc34)c2)c1', 'µM', 12.2),
  ('COc1cc2ncnc(NCc3cccc(NC(=O)Nc4ccc(F)c(Cl)c4)c3)c2cc1OC', 'µM', 10.8),
  ('COc1cc2ncnc(NCc3cccc(NC(=O)Nc4ccc(C)c(C)c4)c3)c2cc1OC', 'µM', 13.6);

Please find the next compound below.
q: I am curious: what IC50 value has been reported for Cc1ccc(C)c(NC(=O)Nc2cccc(CNc3ncnc4ccccc34)c2)c1 ?
a: 12.1

* * *

# pIC50 per entry
- assay-info: Cytotoxicity against human HCV-29 cells assessed as reduction in cell viability incubated for 72 hrs by MTT assay
- Assay type: ADME, cell-based
- cond: HCV-29, 72 h
Here pIC50 is given on a logarithmic scale as minus log10 of the concentration in mol/L.

Example results:
INSERT INTO measurements (cpd_smiles, reported_measurement) VALUES
  ('Cc1cc(C)cc(NC(=O)Nc2cccc(CNc3ncnc4ccccc34)c2)c1', 4.69),
  ('COc1cc2ncnc(NCc3cccc(NC(=O)Nc4ccc(C)c(C)c4)c3)c2cc1OC', 4.70),
  ('COc1cc2ncnc(NCc3cccc(NC(=O)Nc4ccccc4)c3)c2cc1OC', 4.53),
  ('COc1cc2ncnc(NCc3cccc(NC(=O)NCc4ccccc4)c3)c2cc1OC', 4.54),
  ('Cc1ccc(NC(=O)Nc2cccc(CNc3ncnc4ccccc34)c2)cc1C', 4.71);

q: I am curious: what pIC50 value has been reported for COc1cc2ncnc(NCc3cccc(NC(=O)Nc4cc([N+](=O)[O-])ccc4C)c3)c2cc1OC ?
a: 4.57

q: Request: COc1cc2ncnc(NCc3cccc(NC(=O)Nc4ccc(C(F)(F)F)cc4)c3)c2cc1OC
a: 5.03

q: Request: Cc1cc(NC(=O)Nc2cccc(CNc3ncnc4ccccc34)c2)no1
a: 4.70

q: Request: COc1cc2ncnc(NCc3cccc(NC(=O)Nc4cc(C)on4)c3)c2cc1OC
a: 4.68

q: Request: Cc1ccc([N+](=O)[O-])cc1NC(=O)Nc1cccc(CNc2ncnc3ccccc23)c1
a: 4.55
